Data origin: patent US6849639B2

# Lookup of reported melting point keyed by entry
Where a name gives a salt, the structure may show the parent alone.

Please review the entries below; each comes with its answer.
O=C(O)CC(NC(=O)C1CC(=O)N(c2cccc(NC(=S)NCc3ccccc3)c2)C1)c1cccnc1 (centres unmarked) (as salt: sodium) [Example 20] | 230 °C (dec.)
O=C(O)CC(NC(=O)C1CC(=O)N(c2cccc(NC(=S)NCc3ccco3)c2)C1)c1cccnc1 (centres unmarked) (as salt: sodium) [Example 22] | 240 °C (dec.)
CCCCNC(=S)Nc1cccc(N2CC(C(=O)NC(CC(=O)O)c3cccnc3)CC2=O)c1 (centres unmarked) (as salt: sodium) [Example 24] | 235 °C (dec.)

Entry CC(C)CCNC(=S)Nc1cccc(N2CC(C(=O)NC(CC(=O)O)c3cccnc3)CC2=O)c1 (centres unmarked) (as salt: sodium) [Example 23] ; melting point = 250 °C (dec.)

Per the record, O=C(O)CC(NC(=O)C1CC(=O)N(c2cccc(NC(=S)NCc3ccc(F)cc3)c2)C1)c1cccnc1 (centres unmarked) (as salt: sodium) [Example 21] has melting point of 230 °C (dec.)
